Let's look at some compounds and their measured pIC50.
biological target: Bifunctional 3'-5' exonuclease/ATP-dependent helicase WRN (Homo sapiens, UniProt Q14191); experiment: ADP-Glo Kinase Assay
Sequence (Q14191 whole entry): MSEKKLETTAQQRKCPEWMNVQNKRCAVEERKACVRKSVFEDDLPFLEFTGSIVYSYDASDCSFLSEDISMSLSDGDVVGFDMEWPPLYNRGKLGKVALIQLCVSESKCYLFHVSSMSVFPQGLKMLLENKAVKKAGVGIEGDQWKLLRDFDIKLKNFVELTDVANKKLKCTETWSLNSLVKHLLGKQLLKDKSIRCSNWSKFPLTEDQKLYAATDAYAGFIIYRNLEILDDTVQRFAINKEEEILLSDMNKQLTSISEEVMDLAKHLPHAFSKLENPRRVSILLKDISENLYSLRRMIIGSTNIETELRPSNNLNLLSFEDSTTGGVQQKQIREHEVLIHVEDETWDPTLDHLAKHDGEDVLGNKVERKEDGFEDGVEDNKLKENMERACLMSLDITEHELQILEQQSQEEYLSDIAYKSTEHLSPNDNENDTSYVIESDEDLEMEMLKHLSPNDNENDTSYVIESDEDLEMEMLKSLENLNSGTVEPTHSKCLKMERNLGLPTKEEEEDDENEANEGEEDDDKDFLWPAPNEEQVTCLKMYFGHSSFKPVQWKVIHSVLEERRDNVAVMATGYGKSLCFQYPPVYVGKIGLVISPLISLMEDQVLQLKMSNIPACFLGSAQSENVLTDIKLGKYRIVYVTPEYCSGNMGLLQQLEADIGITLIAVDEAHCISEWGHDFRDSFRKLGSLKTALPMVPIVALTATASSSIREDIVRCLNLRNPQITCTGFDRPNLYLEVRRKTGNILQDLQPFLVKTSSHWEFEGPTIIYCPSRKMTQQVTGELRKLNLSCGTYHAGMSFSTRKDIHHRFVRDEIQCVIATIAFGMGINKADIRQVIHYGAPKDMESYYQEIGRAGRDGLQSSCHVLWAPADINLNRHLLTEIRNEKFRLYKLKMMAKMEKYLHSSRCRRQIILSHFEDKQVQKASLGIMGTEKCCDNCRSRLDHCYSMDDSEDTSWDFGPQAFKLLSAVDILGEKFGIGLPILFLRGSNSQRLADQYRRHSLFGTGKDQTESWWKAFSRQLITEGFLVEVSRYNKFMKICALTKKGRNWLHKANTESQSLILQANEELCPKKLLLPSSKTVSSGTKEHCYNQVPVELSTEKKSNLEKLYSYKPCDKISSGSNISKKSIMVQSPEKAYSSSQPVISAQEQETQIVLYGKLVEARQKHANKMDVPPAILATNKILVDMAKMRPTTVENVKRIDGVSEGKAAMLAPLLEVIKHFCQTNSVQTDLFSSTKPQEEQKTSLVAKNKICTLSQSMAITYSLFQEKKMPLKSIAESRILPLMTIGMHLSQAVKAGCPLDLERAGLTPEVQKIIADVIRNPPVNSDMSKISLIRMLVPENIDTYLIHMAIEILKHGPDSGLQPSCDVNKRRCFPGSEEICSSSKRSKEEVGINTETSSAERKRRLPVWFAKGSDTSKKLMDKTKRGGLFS
pIC50: −log10 of the molar value.
experimental.readout: pIC50

> print(dat)
                                item.smiles  measured.value
1  CCc1c(N2CCN(C(=O)c3ncnc(C)c3O)CC2)c(=O)n2nc(-c3cccc4c3OCCO4)nc2n1CC(=O)Nc1ccc(C(F)(F)F)c2c1CC2            7.71
2  C=C(c1ccc(NC(=O)Cn2c(CC)c(N3CCN(C(=O)c4ncnc(C)c4O)CC3)c(=O)n3nc(-c4ccc5c(c4)COC5)nc23)c(Cl)c1)C(F)(F)F            7.27
3  CCc1c(N2CCN(C(=O)c3ncnc(C)c3O)CC2)c(=O)n2nc(-c3ccc4c(c3C)CCO4)nc2n1CC(=O)Nc1ccc(C(F)(F)F)cc1Cl            7.52

* * *

biological target: Bifunctional 3'-5' exonuclease/ATP-dependent helicase WRN (Homo sapiens, UniProt Q14191); assay: ADP-Glo Kinase Assay
Friendly reminder: IC50 below 70 nM is Criterion met, at or above is Criterion not met.

> print(dat)
                                 item.smiles        label.class
 1  CCc1c(N2CCN(C(=O)c3nccc4nn[nH]c34)CC2)c(=O)n2nc(C3=CCOCC3)nc2n1CC(=O)Nc1ccc(C(F)(F)F)cc1Cl      Criterion met
 2  CCc1c(N2CCN(C(=O)c3ncnc(C)c3O)CC2)c(=O)n2nc(-c3ccc4nscc4c3)nc2n1CC(=O)Nc1ccc(C(F)(F)F)cc1Cl      Criterion met
 3  CCc1c(N2CCN(C(=O)c3nccc4nc[nH]c34)CC2)c(=O)n2nc(-c3ccc4c(c3)OCO4)nc2n1CC(=O)Nc1ccc(C(F)(F)F)cc1Cl      Criterion met
 4  CCc1c(N2CCN(C(=O)c3ccccc3NS(=O)(=O)C3CC3)CC2)c(=O)n2nc(C3=CCOCC3)nc2n1CC(=O)Nc1ccc(C(F)(F)F)cc1Cl      Criterion met
 5  CCc1c(N2CCN(C(=O)C3(CO)CC3)CC2)c(=O)n2nc(C3=CCOCC3)nc2n1CC(=O)Nc1ccc(C(F)(F)F)cc1Cl  Criterion not met
 6  CCc1c(N2CCN(C(=O)c3ncnc(C)c3O)CC2)c(=O)n2nc(-c3ccc4c(c3)CO[C@@H]4C)nc2n1CC(=O)Nc1ccc(C(F)(F)F)cc1Cl      Criterion met
 7  CCc1c(N2CCN(C(=O)c3ncnc(C)c3O)[C@H]3CC[C@@H]32)c(=O)n2nc(-c3ccc4c(c3)COC4(C)C)nc2n1CC(=O)Nc1ccc(C(F)(F)F)cc1Cl  Criterion not met
 8  CCc1c(N2CCN(C(=O)CO)CC2)c(=O)n2nc(C3=CCOCC3)nc2n1CC(=O)Nc1ccc(C(F)(F)F)cc1Cl  Criterion not met
 9  CCc1c(N2CCN(C(=O)c3nsc(-c4ccncc4)c3O)CC2)c(=O)n2nc(-c3ccc4c(c3)COC4)nc2n1CC(=O)Nc1ccc(C(F)(F)F)cc1Cl      Criterion met
10  CCc1c(N2CCN(C(=O)c3ncnc(C)c3O)CC2)c(=O)n2nc(-c3cc(F)c4c(c3)COC4)nc2n1CC(=O)Nc1ccc(C(F)(F)F)cc1Cl      Criterion met
11  CCc1c(N2CCN(C(=O)c3ncnc(C)c3O)CC2)c(=O)n2nc(-c3cnc4ccn(C)c4c3)nc2n1CC(=O)Nc1ccc(C(F)(F)F)cc1Cl      Criterion met
12  CCc1c(N2CCN(C(=O)c3ncnc(C)c3O)CC2)c(=O)n2nc(-c3ccc4c(c3)OCO4)nc2n1CC(=O)Nc1ccc(C(F)(F)F)c2c1CC2      Criterion met
13  CCc1c(N2CCN(C(=O)c3ncnc(C)c3O)CC2)c(=O)n2nc(-c3ccc4c(c3)CC(C)(C)N4C(C)=O)nc2n1CC(=O)Nc1ccc(C(F)(F)F)cc1Cl      Criterion met
14  CCc1c(N2CCN(C(=O)c3ncnc(C)c3O)CC2)c(=O)n2nc(-c3ccc4c(c3)COC4)nc2n1CC(=O)Nc1c(Cl)cc(C(F)(F)F)cc1OC1CC1  Criterion not met
15  CCc1c(N2CCN(C(=O)c3ncnc(C)c3O)CC2)c(=O)n2nc(-c3cc4c(cc3F)COCC4)nc2n1CC(=O)Nc1ccc(C(F)(F)F)cc1Cl      Criterion met
16  CCc1c(N2CCN(C(=O)c3ncnc(C)c3O)CC2)c(=O)n2nc(-c3cnc4sccc4c3)nc2n1CC(=O)Nc1ccc(C(F)(F)F)cc1Cl      Criterion met
17  CCc1c(N2CCN(C(=O)c3ncnc(C)c3O)CC2)c(=O)n2nc(-c3ccn4nc(OC(F)F)cc4c3F)nc2n1CC(=O)Nc1ccc(C(F)(F)F)cc1Cl      Criterion met
18  CCc1c(N2CCN(c3ccncn3)CC2)c(=O)n2nc(C3=CCOCC3)nc2n1CC(=O)Nc1ccc(C(F)(F)F)cc1Cl      Criterion met

* * *

target: Bifunctional 3'-5' exonuclease/ATP-dependent helicase WRN (Homo sapiens, UniProt Q14191); experiment: ADP-Glo Kinase Assay
pIC50: −log10 of the molar value.
experimental.readout: pIC50

> print(dat)
                                 item.smiles  measured.value
 1  CCc1c(N2CCN(C(=O)c3ncnc(C)c3O)CC2)c(=O)n2nc(-c3cncc4c3cnn4C)nc2n1CC(=O)Nc1ccc(C(F)(F)F)cc1Cl            7.37
 2  CCc1c(N2CCN(C(=O)c3ncnc(C)c3O)CC2)c(=O)n2nc(-c3cccc4c3OCCO4)nc2n1CC(=O)Nc1ccc(C(F)(F)F)cc1Cl            7.57
 3  CCc1c(N2CCN(C(=O)c3ncnc(C)c3O)CC2)c(=O)n2nc(-c3ccc4c(c3)CCO4)nc2n1CC(=O)Nc1ccc(SC(F)(F)F)cc1Cl            7.39
 4  CCc1c(N2CCN(C(=O)c3ncnc(C)c3O)CC2)c(=O)n2nc(-c3ccc4c(c3)OCC4)nc2n1CC(=O)Nc1c(Cl)cc(C(F)(F)F)c2c1CC2            7.26
 5  CCc1c(N2CCN(C(=O)c3ncnc(C)c3O)CC2)c(=O)n2nc(-c3ccc(C(=O)N4CCCC4)cc3)nc2n1CC(=O)Nc1ccc(C(F)(F)F)cc1Cl            7.59
 6  CCc1c(N2CCN(C(=O)c3ncnc(C)c3O)CC2)c(=O)n2nc(C3=CCOCC3)nc2n1CC(=O)NC12CCC(C(F)(F)F)(CC1)C2            5.78
 7  CCc1c(N2CCN(C(=O)c3ncnc(C)c3O)CC2)c(=O)n2nc(-c3ccc4c(c3)N(C)C(=O)CO4)nc2n1CC(=O)Nc1ccc(C(F)(F)F)cc1Cl            7.32
 8  CCc1c(N2CCN(C(=O)c3c(C#N)cnc(C)c3O)CC2)c(=O)n2nc(-c3ccc4c(c3)COC4)nc2n1CC(=O)Nc1ccc(C(F)(F)F)cc1Cl            7.40
 9  CCc1c(N2CCN(C(=O)c3ncnc(C)c3O)CC2)c(=O)n2nc(-c3ccc4c(c3F)CCO4)nc2n1CC(=O)Nc1ccc(C(F)(F)F)cc1Cl            7.28
10  CCc1c(N2CCN(C(=O)c3cccc4c3nnn4C)CC2)c(=O)n2nc(C3=CCOCC3)nc2n1CC(=O)Nc1ccc(C(F)(F)F)cc1Cl            6.89
11  CCc1c(-c2cc3n(n2)CC(=O)N(C)C3)c(=O)n2nc(C3=CCOCC3)nc2n1CC(=O)Nc1ccc(C(F)(F)F)cc1Cl            4.53

* * *

Target: Bifunctional 3'-5' exonuclease/ATP-dependent helicase WRN [480-1251] (UniProt Q14191)
Construct: 480-1251
Sequence (Q14191 480-1251): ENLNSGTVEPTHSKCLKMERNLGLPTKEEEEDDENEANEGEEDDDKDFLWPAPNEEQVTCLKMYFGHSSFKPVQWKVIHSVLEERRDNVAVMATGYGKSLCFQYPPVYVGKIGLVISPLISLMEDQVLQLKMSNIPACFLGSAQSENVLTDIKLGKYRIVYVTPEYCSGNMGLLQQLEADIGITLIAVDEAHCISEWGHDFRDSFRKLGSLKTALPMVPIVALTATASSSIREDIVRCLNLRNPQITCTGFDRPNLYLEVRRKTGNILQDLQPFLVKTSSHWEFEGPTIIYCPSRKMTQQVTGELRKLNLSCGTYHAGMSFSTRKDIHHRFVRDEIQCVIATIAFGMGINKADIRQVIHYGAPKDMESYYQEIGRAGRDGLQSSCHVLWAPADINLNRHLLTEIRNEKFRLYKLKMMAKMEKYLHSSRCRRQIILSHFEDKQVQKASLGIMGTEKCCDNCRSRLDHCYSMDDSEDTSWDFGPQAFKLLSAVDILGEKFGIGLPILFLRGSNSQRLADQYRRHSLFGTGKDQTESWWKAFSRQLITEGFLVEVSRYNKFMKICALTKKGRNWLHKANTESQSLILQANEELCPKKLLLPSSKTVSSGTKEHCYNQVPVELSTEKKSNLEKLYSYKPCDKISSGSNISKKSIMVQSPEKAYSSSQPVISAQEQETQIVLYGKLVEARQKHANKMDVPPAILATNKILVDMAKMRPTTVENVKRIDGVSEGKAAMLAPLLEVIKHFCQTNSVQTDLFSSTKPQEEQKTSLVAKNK
Assay: Biochemical Activity Assays
Protocol: The pure fractions were pooled and desalted/buffer exchanged into storage buffer using a HiTrap desalting column. […] First, WRN alone was pre-incubated with DMSO or compound of interest for 15 minutes. To initiate the reaction, ATP, dsDNA substrate, and ssDNA competitor (ssDNA_comp: […]) were added and incubated at room temperature for 20 minutes at which point DNA unwinding activity was monitored by measuring Cy3 fluorescence. […]
pIC50: −log10 of the molar value.
Label True when pIC50 is at or above 7; otherwise label False.

compound	tested.target	label.class
CCc1c(N2CCN(C(=O)c3ncnc(C)c3O)CC2)c(=O)n2nc(-c3ccc4c(c3)[C@H](C(F)(F)F)OC4)nc2n1CC(=O)Nc1ccc(C(F)(F)F)cc1Cl	Bifunctional 3'-5' exonuclease/ATP-dependent helicase WRN [480-1251] (UniProt Q14191)	False
CCc1c(N2CCN(C(=O)c3ncnc(C)c3O)CC2)c(=O)n2nc(-c3cccc4c3COC(C)(C)C4)nc2n1CC(=O)Nc1ccc(C(F)(F)F)cc1Cl [WO2025049746, Example 223]	Bifunctional 3'-5' exonuclease/ATP-dependent helicase WRN [480-1251] (UniProt Q14191)	False
CCc1c(N2CCN(C(=O)c3nc4n(c(=O)c3O)CCOC4)CC2)c(=O)n2nc(C3=CCOCC3)nc2n1CC(=O)Nc1ccc(C(F)(F)F)cc1Cl	Bifunctional 3'-5' exonuclease/ATP-dependent helicase WRN [480-1251] (UniProt Q14191)	True
CCc1c(N2CCN(C(=O)c3ncnc(C)c3O)CC2)c(=O)n2nc(-c3ccc(NS(N)(=O)=O)cc3)nc2n1CC(=O)Nc1ccc(C(F)(F)F)cc1Cl	Bifunctional 3'-5' exonuclease/ATP-dependent helicase WRN [480-1251] (UniProt Q14191)	True
CCc1c(N2CCN(C(=O)c3ncnc(C)c3O)CC2)c(=O)n2nc(-c3cccc4c3OCCO4)nc2n1CC(=O)Nc1ccc(C(F)(F)F)cc1Cl	Bifunctional 3'-5' exonuclease/ATP-dependent helicase WRN [480-1251] (UniProt Q14191)	True
Cc1ncnc(C(=O)N2CCN(c3c4n(c5nc(-c6ccc7c(c6)COC7(C)C)nn5c3=O)[C@H](C(=O)Nc3ccc(C(F)(F)F)cc3Cl)C[C@H]4C)CC2)c1O	Bifunctional 3'-5' exonuclease/ATP-dependent helicase WRN [480-1251] (UniProt Q14191)	True
CCc1c(N2CCN(C(=O)c3ccccc3NS(=O)(=O)C3CC3)CC2)c(=O)n2nc(N3C[C@H]4COC[C@H]4C3)nc2n1CC(=O)Nc1ccc(C(F)(F)F)cc1Cl	Bifunctional 3'-5' exonuclease/ATP-dependent helicase WRN [480-1251] (UniProt Q14191)	True
CCc1c(N2CCN(C(=O)c3ncnc(C)c3O)CC2)c(=O)n2nc(-c3cc(C)c4c(c3)COC4)nc2n1CC(=O)Nc1ccc(C(F)(F)F)cc1Cl	Bifunctional 3'-5' exonuclease/ATP-dependent helicase WRN [480-1251] (UniProt Q14191)	True
